Each entry below lists one item and its recorded % inhibition apPOL 180' value.
Study System: P. falciparum apicoplast DNA polymerase (Pf-apPOL) (Plasmodium falciparum)
Sequence (Q8ILY1 entry or part of it): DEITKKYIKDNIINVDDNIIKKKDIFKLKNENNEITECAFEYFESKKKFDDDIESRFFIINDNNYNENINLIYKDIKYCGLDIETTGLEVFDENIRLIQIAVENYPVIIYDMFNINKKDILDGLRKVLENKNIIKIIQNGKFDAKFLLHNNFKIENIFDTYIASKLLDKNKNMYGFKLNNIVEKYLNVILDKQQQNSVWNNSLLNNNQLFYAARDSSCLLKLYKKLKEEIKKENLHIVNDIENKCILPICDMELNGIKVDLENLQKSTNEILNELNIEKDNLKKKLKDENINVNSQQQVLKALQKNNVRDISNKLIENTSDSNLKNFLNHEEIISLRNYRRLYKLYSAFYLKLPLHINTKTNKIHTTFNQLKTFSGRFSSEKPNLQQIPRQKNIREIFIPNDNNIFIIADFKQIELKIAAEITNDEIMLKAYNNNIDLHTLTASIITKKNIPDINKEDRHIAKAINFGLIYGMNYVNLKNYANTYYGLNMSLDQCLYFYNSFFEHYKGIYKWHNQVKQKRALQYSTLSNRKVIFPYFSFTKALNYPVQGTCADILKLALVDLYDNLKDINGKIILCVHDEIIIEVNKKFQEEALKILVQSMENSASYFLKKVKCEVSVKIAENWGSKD
Assay Name: Fluorescence-based high-throughput DNA polymerase assay (molecular beacon), primary screen and dose-response;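 note: test concentration in µM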
Type: biochemical
Assay Conditions: DRC-1; 180'; concentration 40
The reply should contain only the number, in %.

1) CSCCC(C)(O)CNC(=O)C1CC1 (stereo not drawn) [KU0200150] = 54.9454

Prompt: For COc1ccccc1CCC(=O)N1CCc2c(nc3cc(-c4ccccc4)[nH]n3c2=O)C1 [Molecule 7] , write its % inhibition apPOL 180'.
Completion: 58

Prompt: For Nc1c(S(=O)(=O)O)cc(Nc2ccccc2)c2c1C(=O)c1ccccc1C2=O [KU0045407] , write its % inhibition apPOL 180'.
Completion: 88.0246

Taken from paper PMC9090415.
